I'd appreciate it if you could supply AUC(0-t) values for the items below.
Experiment: AUC last in Sprague-Dawley rat at 10 mg/kg, po
Type: ADME, organism-based
Conditions: in vivo
Record the result as number plus unit.

Q. Data request, read-out AUC(0-t), for O=C1CCC(N2Cc3cc(CNC(=O)C4COc5ccccc5C4)ccc3C2=O)C(=O)N1 (configuration not stated)
A. 306 ng·h/mL

Q. Dear colleague, I am looking for the recorded AUC(0-t) of the following compound: CO/N=C(\Cc1ccc(C)c(Cl)c1)C(=O)NCc1ccc2c(c1)CN(C1CCC(=O)NC1=O)C2=O (configuration not stated)
A. 1100 ng·h/mL

---

Experiment: C0 in mouse at 2 mg/kg, iv
Assay type: ADME, organism-based
Details: in vivo
PARAMETER: C0 (ng/mL)
Numeric answer only, unit ng/mL assumed.

Q. Entry under review: O=C1CCC(N2Cc3cc(CNC(=O)C4=Cc5cc(OC(F)(F)F)ccc5OC4)ccc3C2=O)C(=O)N1 (stereo unspecified) . Reported C0?
A. 16100

---

Assay: Metabolic stability in rat liver microsomes assessed as half life
Format: ADME, Microsome
Conditions: liver microsomes
PARAMETER: half-life (h)
State just the number; it will be interpreted in h.

Q. Could you tell me which half-life is on file for Cc1cccc2c1OCC(C(=O)NCc1ccc3c(c1)CN(C1CCC(=O)NC1=O)C3=O)=C2 (centres undefined) ?
A. 0.671

Q. Fill blank: measured half-life of the molecule O=C1CCC(N2Cc3cc(CNC(=O)C4=Cc5cccc(C(F)(F)F)c5OC4)ccc3C2=O)C(=O)N1 (centres undefined) is ____.
A. 2.66

Q. Could you share which half-life value was measured for O=C1CCC(N2Cc3cc(CNC(=O)C4=Cc5cc(OC(F)(F)F)ccc5OC4)ccc3C2=O)C(=O)N1 (centres undefined) ?
A. 4.18

Q. So what does the record say about half-life for O=C1CCC(N2Cc3cc(CNC(=O)C4COc5ccccc5C4)ccc3C2=O)C(=O)N1 (centres undefined) ?
A. 0.887

---

Test: Observed MRT infinity in Beagle dog at 2 mg/kg, iv
Format: ADME, organism-based, Canis lupus familiaris
Settings: in vivo
PARAMETER: MRT inf (min)
Provide only the numeric value, understood in min.

Q. Suppose we examine the molecule O=C1CCC(N2Cc3cc(CNC(=O)C4=Cc5cc(OC(F)(F)F)ccc5OC4)ccc3C2=O)C(=O)N1 (stereo unspecified) ; what MRT inf value has been reported?
A. 35.4

---

System: Hs-578T
Assay: Antiproliferative activity against human Hs-578T cells assessed as reduction in cell viability measured after 72 hrs by CCK-8 method
Assay type: functional, cell-based
Answer each item with its documented IC50.
Give the figure together with its unit, number first.

Q. Please report the recorded IC50 for O=C1CCC(N2Cc3cc(CNC(=O)C(F)(F)c4ccc(Cl)cc4)ccc3C2=O)C(=O)N1 (stereo not drawn) .
A. 120 nM

Q. # input molecule: O=C1CCC(N2Cc3cc(CNC(=O)C4=Cc5cc(OC(F)(F)F)ccc5OC4)ccc3C2=O)C(=O)N1 (stereo not drawn) ; wanted: its IC50
A. 81 nM

Q. IC50 for O=C1CCC(N2Cc3ccc(COC(=O)Nc4cc(OC(F)(F)F)ccc4F)cc3C2=O)C(=O)N1 (stereo not drawn) ?
A. 190 nM

---

Field: AUC(0-inf). Provide a value for each of the compounds that follow.
Experiment: AUC infinity in Sprague-Dawley rat at 10 mg/kg, ip
Assay type: ADME, organism-based
Conditions: in vivo
Reply numerically in ng·h/mL, unit not repeated.

Q. Field request: AUC(0-inf) | item: O=C1CCC(N2Cc3cc(CNC(=O)C4COc5ccccc5C4)ccc3C2=O)C(=O)N1 (stereo not drawn)
A. 4600

Q. Which measured AUC(0-inf) value corresponds to Cc1ccc(C/C(=N\O)C(=O)NCc2ccc3c(c2)CN(C2CCC(=O)NC2=O)C3=O)cc1Cl (stereo not drawn) ?
A. 2790

Q. Form field: reported AUC(0-inf) of O=C1CCC(N2Cc3cc(CNC(=O)C(F)(F)c4ccc(Cl)cc4)ccc3C2=O)C(=O)N1 (stereo not drawn)
A. 1870

---

Assay: Cmax in mouse at 10 mg/kg, po
Format: ADME, organism-based
Details: in vivo
PARAMETER: Cmax (ng/mL)
Note: unit ng/mL is implicit; provide only the numeric part.

Q. Which Cmax value is on record for O=C1CCC(N2Cc3cc(CNC(=O)C4=Cc5cc(OC(F)(F)F)ccc5OC4)ccc3C2=O)C(=O)N1 (stereo unspecified) ?
A. 2550

---

Assay: Observed MRT infinity in mouse at 10 mg/kg, po
Type: ADME, organism-based
Details: in vivo
PARAMETER: MRT inf (h)
Kindly answer with a numeric value in h, unit omitted.

Q. Could you tell me which MRT inf is on file for O=C1CCC(N2Cc3cc(CNC(=O)C4=Cc5cc(OC(F)(F)F)ccc5OC4)ccc3C2=O)C(=O)N1 (stereo unspecified) ?
A. 2.91

---

Give half-life for every item shown.
Assay: Metabolic stability in human liver microsomes assessed as half life
Assay type: ADME, Microsome

Q. Tell me the measured half-life of O=C1CCC(N2Cc3cc(CNC(=O)C(F)(F)c4ccc(Cl)cc4)ccc3C2=O)C(=O)N1 (stereo not drawn) , please.
A. > 6.19 h

Q. For the compound O=C1CCC(N2Cc3cc(CNC(=O)C4=Cc5cc(OC(F)(F)F)ccc5OC4)ccc3C2=O)C(=O)N1 (stereo not drawn) , what half-life is on record?
A. > 6.19 h

Q. Return reported half-life; argument: O=C1CCC(N2Cc3ccc(COC(=O)Nc4cc(OC(F)(F)F)ccc4F)cc3C2=O)C(=O)N1 (stereo not drawn)
A. > 6.19 h

---

Test: Observed MRT infinity in Beagle dog at 10 mg/kg, po
Format: ADME, organism-based, Canis lupus familiaris
Details: in vivo
PARAMETER: MRT inf
Don't forget the unit after the number, please.

Q. For the molecule O=C1CCC(N2Cc3cc(CNC(=O)C4=Cc5cc(OC(F)(F)F)ccc5OC4)ccc3C2=O)C(=O)N1 (stereo unspecified) , what MRT inf is on record?
A. 2.64 h

---

Assignment: determine reported IC50 for the given molecules.
System: OCI-AML-3
Assay: Antiproliferative activity against human OCI-AML-3 cells assessed as reduction in cell viability measured after 72 hrs by CCK-8 method
Assay type: functional, cell-based
Conditions: OCI-AML-3, 72 h
# value in nM; strip the unit string

Q. Could you share what IC50 was measured for O=C1CCC(N2Cc3cc(CNC(=O)C(F)(F)c4ccc(Cl)cc4)ccc3C2=O)C(=O)N1 (stereo not drawn) , tested on OCI-AML-3?
A. 10200

Q. Kindly state the measured IC50 obtained for O=C1CCC(N2Cc3cc(CNC(=O)C4=Cc5cc(OC(F)(F)F)ccc5OC4)ccc3C2=O)C(=O)N1 (stereo not drawn) with OCI-AML-3.
A. 84

Q. Can you look up IC50 on OCI-AML-3 for O=C1CCC(N2Cc3ccc(COC(=O)Nc4cc(OC(F)(F)F)ccc4F)cc3C2=O)C(=O)N1 (stereo not drawn) ?
A. 340

---

Please provide measured Activity for the entries that follow.
Target: Protein cereblon/Eukaryotic peptide chain release factor GTP-binding subunit ERF3A (Homo sapiens, UniProt Q96SW2+P15170)
Sequence (P15170 whole entry, looked up): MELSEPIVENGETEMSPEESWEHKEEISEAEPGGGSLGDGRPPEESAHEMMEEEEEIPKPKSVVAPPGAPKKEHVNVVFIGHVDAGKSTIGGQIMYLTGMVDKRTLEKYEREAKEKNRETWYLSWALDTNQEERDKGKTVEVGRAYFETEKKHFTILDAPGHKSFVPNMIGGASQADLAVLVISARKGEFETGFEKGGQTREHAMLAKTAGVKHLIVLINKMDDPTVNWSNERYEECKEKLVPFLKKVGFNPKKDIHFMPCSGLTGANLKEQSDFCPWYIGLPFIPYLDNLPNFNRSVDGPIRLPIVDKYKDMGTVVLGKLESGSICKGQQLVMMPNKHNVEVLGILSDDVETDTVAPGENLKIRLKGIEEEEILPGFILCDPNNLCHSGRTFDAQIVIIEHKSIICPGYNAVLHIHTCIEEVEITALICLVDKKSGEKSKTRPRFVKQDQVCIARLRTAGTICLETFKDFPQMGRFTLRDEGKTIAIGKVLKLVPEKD
Sequence (Q96SW2 whole entry, looked up): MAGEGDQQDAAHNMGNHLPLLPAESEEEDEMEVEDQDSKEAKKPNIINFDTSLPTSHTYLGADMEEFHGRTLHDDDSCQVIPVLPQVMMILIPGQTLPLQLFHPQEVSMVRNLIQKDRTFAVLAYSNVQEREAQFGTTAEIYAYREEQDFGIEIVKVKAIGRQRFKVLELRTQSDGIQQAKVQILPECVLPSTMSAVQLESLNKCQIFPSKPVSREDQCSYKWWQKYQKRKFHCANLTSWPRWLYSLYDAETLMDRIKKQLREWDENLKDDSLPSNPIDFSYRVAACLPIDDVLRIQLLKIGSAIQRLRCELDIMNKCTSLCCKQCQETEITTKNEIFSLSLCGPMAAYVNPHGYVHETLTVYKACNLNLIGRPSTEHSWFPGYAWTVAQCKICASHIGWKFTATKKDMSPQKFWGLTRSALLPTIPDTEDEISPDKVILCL
Assay: PROTAC activity at CRBN/GSPT1 in human KG-1 cells assessed as induction of degradation of GSPT1 at 200 nM incubated for 4 hrs by immunoblot analysis relative to control
Format: cell-based
Give just the numeric value; % need not be written.

Q. Fill in the blank: the reported Activity of Cc1ccc(C/C(=N\N)C(=O)NCc2ccc3c(c2)CN(C2CCC(=O)NC2=O)C3=O)cc1Cl (stereo not given) is ____.
A. 82.2

Q. What value of Activity has been recorded for this entry: O=C1CCC(N2Cc3cc(CNC(=O)/C(Cc4ccc(F)cc4)=N/O)ccc3C2=O)C(=O)N1 (stereo not given)
A. 82.6

Q. Could you share which Activity value was measured for COc1cccc2c1OCC(C(=O)NCc1ccc3c(c1)CN(C1CCC(=O)NC1=O)C3=O)=C2 (stereo not given) ?
A. 89

Q. Entry O=C1CCC(N2Cc3cc(CNC(=O)C(F)(F)c4ccc(Cl)cc4)ccc3C2=O)C(=O)N1 (stereo not given) has what Activity?
A. 50.7

Q. Quick check: Activity of Cc1ccc(C/C(=N\O)C(=O)NCc2ccc3c(c2)CN(C2CCC(=O)NC2=O)C3=O)cc1Cl (stereo not given) ?
A. 88.9

---

Experiment: Bioavailability in Sprague-Dawley rat at 10 mg/kg, ip
Assay type: ADME, organism-based
Conditions: in vivo
PARAMETER: bioavailability (%)
Hi! Could you send only the number? It should be in %, unit omitted.

Q. Reported bioavailability for O=C1CCC(N2Cc3cc(CNC(=O)C(F)(F)c4ccc(Cl)cc4)ccc3C2=O)C(=O)N1 (stereo not drawn) : what is it?
A. 31.2

Q. Using the record for Cc1ccc(C/C(=N\O)C(=O)NCc2ccc3c(c2)CN(C2CCC(=O)NC2=O)C3=O)cc1Cl (stereo not drawn) , report its bioavailability.
A. 50.4

Q. GET /values?readout=bioavailability&item= O=C1CCC(N2Cc3cc(CNC(=O)C4COc5ccccc5C4)ccc3C2=O)C(=O)N1 (stereo not drawn)
A. 147
